assay.remarks: soluble fraction after stress (log2 fold change); higher = more stays soluble; pooled small domains, quantitative proteomics
experimental.parameters: stress: pH 4
Would you please tag the item Condition met when its soluble fraction (log2) is 0.02 or above, and Condition not met when it is below?

Look over these answered cases.
| residues | qualitative.label |
| --- | --- |
| HMNNLLEDIKARLMAQAEAGGHIDTETELAEHFGVTRYRIRKELDLLSQMGLLRRQPKNGIEVLTV | Condition met |
| HMSTKRGEILEFLKDFSARKGYAPSVREIMQAVGLKSTASVHYHLSELHKAGLITVDGTKNRAISLA | Condition met |
| HMATVIDVATTLGRPITDPDEQRQVLNWIGKTERIISARLGDLAALDRQILADVISEVVARRARN | Condition not met |

Asked: Item HMSEYVIVTGEKVNLRVGPGMDYEIAGQVVKGDKLELLASEGDWSKVKTGSGSIYYISSSLVQKA with soluble fraction (log2) of 0.02 or above?
Given back: Condition not met

Asked: Item HMGSALLEAGADDAGQRLDQWLAAKLGPSISRSRVQALIKQGAVLVGGKPAGEAKRKLVAGDVVSVALPEP with soluble fraction (log2) of 0.02 or above?
Given back: Condition met

Asked: Item HMDENTEQESQTVVVPDVTGKSLSEAASILREAGLDYLAEQTGTVVTKQMPLPDAEVLINTTVLLYTDSE with soluble fraction (log2) of 0.02 or above?
Given back: Condition not met

Asked: Item HMLMSDEENAEFTKLYRQLVFKLHPDLNPNQTKDEENLWHKVQMAYKGGDLEEMRSLAIILDAQ with soluble fraction (log2) of 0.02 or above?
Given back: Condition not met

Asked: Item HMAQELPYEKVTMNGKMFYVYHVKAGEGLYLISRTFSVNADEILKFNPSIENGLKSGQVLYIPIK with soluble fraction (log2) of 0.02 or above?
Given back: Condition not met

Asked: Item HMANSLLVTAQAGGQKLFNFLKRSLHAENNEIHRWIRTGQVRINKKRTKAFDIVHENDEIRIPPFALNR with soluble fraction (log2) of 0.02 or above?
Given back: Condition not met

Asked: Item HMDAVTPVLSRIRDARFKRMVLPGDEIEISVTLIDTIGKFFNLSGQIRNKDKISLTVNFALALV with soluble fraction (log2) of 0.02 or above?
Given back: Condition met

* * *

Each entry below carries its recorded soluble fraction (log2).
assay.remarks: soluble fraction after stress (log2 fold change); higher = more stays soluble; pooled small domains, quantitative proteomics
experimental.parameters: stress: pH 4
The reply should be a number, written without any unit.

| residues | assay.metric | reported |
| --- | --- | --- |
| HMLEQISDINILSGYAKEVIAENPKTVSDYLSGKAAAFQALVGQVMKKTGGRGNPVIIQEILKRLIHKK | soluble fraction (log2) | -0.182 |
| HMETPQIVARGDLITMVFRSGSLVLTAKGKALENGAMGDTIRVVNSDSNKTLAARVSASREVTVSE | soluble fraction (log2) | -0.146 |

Asked: // fetch soluble fraction (log2) given entry HMSELSEVIEKTFEELPEELKLIVKLREIDDLSYDEISNKIGIPIGTVRSRLHRAREILINIIKN
Given back: -1.01

* * *

assay.remarks: soluble fraction after stress (log2 fold change); higher = more stays soluble; pooled small domains, quantitative proteomics
experimental.parameters: stress: pH 4
Would you please tag the item MET when its soluble fraction (log2) is -0.6 or above, and NOT MET when it is below?

Look over these answered cases.
| residues | qualitative.label |
| --- | --- |
| HMFEEPYLATYPVLIDPKLAFNVLDTMLEGLEVKMDQDEETGAISVLAPASIHTKITEYLDALSKQ | NOT MET |
| HMATVHPIRIQGGMTTQQGGKTVWLWVSDEGRLMTEDEIAGESGGTVSSRMVRGVRVLTGTGVIYG | MET |
| HMLPDGEAFVKVNTSLNIRTGPWGQIVGWFHNNDKVKIIGRDGDWYKISHNGQTRYIHSRYVSSSR | MET |
| HMIQNTGMMESGDSIRGMALDAGFPLLMVVGYRGWTRKGNTPDSAAVYTEPFLNAFRLNYYLVEHDE | MET |
| HMDAKQLQSLKNNNEQLAGFIVRLTNFYEGLSPDIDAELSKLRSHLSGKVDYTLATVSINKINQLFMLEP | NOT MET |
| HMPQNLQDQLFELILSRYPRRADAVEDLANILHLGKDPVYRRLRGDTFLSPLEISTLALHFRISLDALIV | NOT MET |
| HMQVAPDLMQRLTSQGHVDEKLSDALVHARQITNFEGRRRQMQFIGKLMRKLSEESIEAVKDALNEQRM | MET |
| HMGIAKYRQVTEWIQNRIATGELNRGDQIESENDISRTFGISRQTVRHALGLLEQQGILTRIQGRGTFVRD | MET |

Asked: Item HMNPFLELTEREMDVLRLIAIGRNNQEIASELVISEKTVKTHITNIFSKLHFKDRTQAAAYAWQSGIVR with soluble fraction (log2) of -0.6 or above?
Given back: NOT MET

Asked: Item HMLEPEVLDLIGQVKSVHHFSVTQSHQLEKLVRHAHTLGFEIAELKSLLASSPNAKSLLSSLDQKLEPLRM with soluble fraction (log2) of -0.6 or above?
Given back: MET

* * *

assay.remarks: soluble fraction after stress (log2 fold change); higher = more stays soluble; pooled small domains, quantitative proteomics
experimental.parameters: stress: pH 4
Each entry below carries its recorded soluble fraction (log2).
The reply should be a number, written without any unit.

Asked: // fetch soluble fraction (log2) given entry HMGAQKITIPDFSNQEATQVYAELKNMGLEYTESRMNHPSIASGYVIKTEPTKGSEVKAGTTVTVYVSLG
Given back: -0.128

* * *

Each entry below carries its recorded soluble fraction (log2).
assay.remarks: soluble fraction after stress (log2 fold change); higher = more stays soluble; pooled small domains, quantitative proteomics
experimental.parameters: stress: pH 4

| residues | reported |
| --- | --- |
| HMPMPQDEVSYALGLSIGQNFKASGIKAITSEDFIAGLQDALAEREPQMTTERAREVINQLFMRLQQEESE | -0.784 |
| HMSEEQLKAFLEKVQGDTSLQEKLKAAADANAVVEIAKEAGFSISADDLKNAQSELSEEELE | -0.257 |

Here is another sequence to look at.
Asked: // fetch soluble fraction (log2) given entry HMKPTVKKLLAALPELRSGQPLHLSVATRKLRDAGLLGKNASSPTLFRNYVAQFELIPENQPNAVRYR
Given back: 0.268

* * *

assay.remarks: soluble fraction after stress (log2 fold change); higher = more stays soluble; pooled small domains, quantitative proteomics
experimental.parameters: stress: pH 4
Each entry below carries its recorded soluble fraction (log2).

Asked: // fetch soluble fraction (log2) given entry HMTAFEPYLVKVMASVLNIRKGPGTSYAITGQIKDKGTYTIVAESGSWGKLKSGAGWISLSYTSKAGKA
Given back: -0.591

Asked: // fetch soluble fraction (log2) given entry HMVNTVEVQGNTIYSAEEIRSASGIQKGDNLFTLNKEAAAGSIKASLPYVETVSIIRFLPDKIVIEVKE
Given back: -0.977

Asked: // fetch soluble fraction (log2) given entry HMQTLQNNLKQIRSRVGLTQGELASRAGISRQAYSTLESGNANPSTEVSLRLAEALNERIESLFFLANQ
Given back: -0.846

Asked: // fetch soluble fraction (log2) given entry HMNEIDDYDIQLLEYLSKGVSQEAMESVFKQAGITPNSKSTIEKRISKLKIYFKALNTTHLVSITKDLGL
Given back: -1.27

Asked: // fetch soluble fraction (log2) given entry HMPSNVKIPDVTGKTVAQARSAIEAAGLKVGKEKDEYSDSAKKDSVIRTNPQAGTQRREGSTVDLIVS
Given back: 0.22

Asked: // fetch soluble fraction (log2) given entry HMNETTVPDVINQNISTGKIIIEDADLEYRIQYIPSEKSSSIGTIINSIPIYGKRVKSGTIVDLKVLG
Given back: -0.34

* * *

assay.remarks: soluble fraction after stress (log2 fold change); higher = more stays soluble; pooled small domains, quantitative proteomics
experimental.parameters: stress: pH 4
assay.metric: soluble fraction (log2)
The reply should be a number, written without any unit.

| residues | soluble fraction (log2) |
| --- | --- |
| HMTQRRLQSELDSIPGVGAGTRTKLLRTLGSVDAVLRASEAELLAAGANRRQVASIQAHAAAVER | 0.0567 |

Asked: // fetch soluble fraction (log2) given entry HMGMLATFVTSAKVPDDVVYAITKEVFENLDEFKKLHPALEGLTRETMLEGLTAPIHPGALKYYKEAGLM
Given back: -1.32

Asked: // fetch soluble fraction (log2) given entry HMHYNMNYLENLTKTELFDLAKNKFGLTYAEMERHLSIPEGGARYAIKAEHSKYGSDIKKYLVEFLLE
Given back: -0.134

Asked: // fetch soluble fraction (log2) given entry HMIDHLPPQRAAVLAFLQRELVAGRSPSLAEIALAFGFASRNAAQKHVQALVADGLLEQATGRSRGLRLPG
Given back: -0.235

Asked: // fetch soluble fraction (log2) given entry HMRPHDDHLREQLLGIATETIARTGVEGLSLRTLATDAGTSTSAVYQLFGSRAALLDAVYLRVLE
Given back: -0.733

Asked: // fetch soluble fraction (log2) given entry HMPFSLHGVNEGSRNDNAARIAGYLISKNLNLDFVRIFLHNWNRDNKPPLPQQEIDSVVDNVKKTHDRKN
Given back: -0.0731

Asked: // fetch soluble fraction (log2) given entry HMISVENLSNREFEIFQLIGNGFSTKEMAKKLNLSIYTVESHKKNIKEKLKLKNSSDLSKYAIQWVIMQN
Given back: -1.35

Asked: // fetch soluble fraction (log2) given entry HMAWIAVATKEDYSEYEWKELSPTTDWSTQTFDLGDLAGKTIYAVKMFFDHDTDVKDYKFNLGQLSITSN
Given back: -1.22

Asked: // fetch soluble fraction (log2) given entry HMSGILINGELYKPGEQMSLKQRLSIQARIQMQGEDTVKPEMLKDFYNSGGPLSKEESSEYMKSQN
Given back: -0.321

Asked: // fetch soluble fraction (log2) given entry HMEVVVPEDLDAALQQASRAQSFFSSLSYTHKKEYVAWINEAKRAETRAMRIQKTITMLESGQRGH
Given back: 0.28
